test: In vivo pharmacokinetic study in mice, oral ibrutinib (plasma, LC-MS/MS); details: male, FVB, mouse, plasma, po, 10 mg/kg, Ibrutinib AUC(0-last), male wild-type FVB mice; ibrutinib 10 mg/kg PO; co-treatment corn oil; mean (SD)

| COMPOUND | AUC(0-t) / ng·h/mL |
| --- | --- |
| C=CC(=O)N1CCC[C@@H](n2nc(-c3ccc(Oc4ccccc4)cc3)c3c(N)ncnc32)C1 [Ibrutinib] | 663 |

###

test: In vivo pharmacokinetic study in mice, oral ibrutinib (plasma, LC-MS/MS); conditions: female, FVB, mouse, plasma, po, 10 mg/kg, Ibrutinib AUC(0-last), female wild-type FVB mice; ibrutinib 10 mg/kg oral single dose; cotreatment cobicistat 30 mg/kg; mean (SE)

| SMILES CODE | AUC(0-t) (ng·h/mL) |
| --- | --- |
| C=CC(=O)N1CCC[C@@H](n2nc(-c3ccc(Oc4ccccc4)cc3)c3c(N)ncnc32)C1 | 2600 |

These measurements were taken from paper PMC8691714.
